Target chain: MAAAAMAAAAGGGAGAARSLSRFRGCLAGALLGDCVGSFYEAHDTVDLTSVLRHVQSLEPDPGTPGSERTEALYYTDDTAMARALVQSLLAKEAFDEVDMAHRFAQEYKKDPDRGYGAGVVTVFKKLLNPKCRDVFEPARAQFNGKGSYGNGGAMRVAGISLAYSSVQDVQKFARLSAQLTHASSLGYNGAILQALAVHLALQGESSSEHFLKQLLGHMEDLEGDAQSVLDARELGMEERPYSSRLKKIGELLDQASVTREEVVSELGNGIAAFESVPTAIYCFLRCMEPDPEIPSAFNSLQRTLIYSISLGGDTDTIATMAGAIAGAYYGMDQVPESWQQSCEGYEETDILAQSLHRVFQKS
assay-endpoint: Ki (nM)
Numbers only here, please. The scale is nM.

Fill in the blank: the reported Ki of N=C(NCCCC(N)C(=O)O)NC1OC(COP(=O)(O)OP(=O)(O)OCC2OC(n3cnc4c(N)ncnc43)C(O)C2O)C(O)C1O (stereo not shown) is ____. 18
